Provenance of the data: the kinase profiling compilation of Christmann-Franck et al. (2016)

Biological target: AKT1 (human) (UniProt P31749)
Sequence (P31749 whole entry, looked up): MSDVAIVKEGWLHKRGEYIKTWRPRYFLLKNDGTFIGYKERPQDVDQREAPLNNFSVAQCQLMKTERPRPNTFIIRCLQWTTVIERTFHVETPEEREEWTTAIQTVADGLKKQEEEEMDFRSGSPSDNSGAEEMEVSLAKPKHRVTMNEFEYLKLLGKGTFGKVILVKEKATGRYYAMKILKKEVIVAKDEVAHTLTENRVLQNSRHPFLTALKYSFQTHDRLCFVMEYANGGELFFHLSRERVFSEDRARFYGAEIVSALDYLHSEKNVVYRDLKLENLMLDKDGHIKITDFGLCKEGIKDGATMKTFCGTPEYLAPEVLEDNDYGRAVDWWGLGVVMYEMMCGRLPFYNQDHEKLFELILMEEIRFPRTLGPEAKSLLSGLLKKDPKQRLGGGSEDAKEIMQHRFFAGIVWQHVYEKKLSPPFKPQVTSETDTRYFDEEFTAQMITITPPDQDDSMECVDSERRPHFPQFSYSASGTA
Test: radiometric filter-binding kinase assay
Details: compound 10.0 µM; ATP 100 µM
reported_property: residual activity

Exam item: Give AKT1 (human) (UniProt P31749) residual activity for the following molecule: `Nc1ncnc2c1cnn2-c1ccccc1`
Marked response: 108%

Exam item: Give AKT1 (human) (UniProt P31749) residual activity for the following molecule: `CC(C)[C@H](CO)Nc1nc(Nc2cccc(Cl)c2)c2ncn(C(C)C)c2n1`
Marked response: 88%

Exam item: Give AKT1 (human) (UniProt P31749) residual activity for the following molecule: `CN(C)S(=O)(=O)c1ccc2c(c1)/C(=C/c1cc3c([nH]1)CCCC3)C(=O)N2`
Marked response: 100%

Exam item: Give AKT1 (human) (UniProt P31749) residual activity for the following molecule: `COC(=O)[C@@]1(OC)C[C@@H]2O[C@]1(C)n1c3ccccc3c3c4c(c5c6ccccc6n2c5c31)C(=O)N(C)C4`
Marked response: 83%

Exam item: Give AKT1 (human) (UniProt P31749) residual activity for the following molecule: `Cc1ccc(-c2nn(C(C)(C)C)c3ncnc(N)c23)cc1`
Marked response: 97%

Exam item: Give AKT1 (human) (UniProt P31749) residual activity for the following molecule: `O=C1Cc2c([nH]c3ccc([N+](=O)[O-])cc23)-c2ccccc2N1`
Marked response: 61%

Exam item: Give AKT1 (human) (UniProt P31749) residual activity for the following molecule: `O=C1c2ccccc2-c2n[nH]c3cccc1c23`
Marked response: 95%

Exam item: Give AKT1 (human) (UniProt P31749) residual activity for the following molecule: `CC[C@@H](CO)Nc1nc(NCc2ccccc2)c2ncn(C(C)C)c2n1`
Marked response: 89%

Exam item: Give AKT1 (human) (UniProt P31749) residual activity for the following molecule: `CC(C)(C)n1nc(-c2ccc(Cl)cc2)c2c(N)ncnc21`
Marked response: 77%

Exam item: Give AKT1 (human) (UniProt P31749) residual activity for the following molecule: `O=C(O[C@@H]1Cc2c(O)cc(O)cc2O[C@@H]1c1cc(O)c(O)c(O)c1)c1cc(O)c(O)c(O)c1`
Marked response: 87%

Exam item: Give AKT1 (human) (UniProt P31749) residual activity for the following molecule: `O=C1Nc2ccccc2/C1=C1\Nc2ccccc2\C1=N/O`
Marked response: 62%

Exam item: Give AKT1 (human) (UniProt P31749) residual activity for the following molecule: `O=C1Cc2c([nH]c3ccc(Br)cc23)-c2ccccc2N1`
Marked response: 86%
